meta.source: patent US20260297081A1

Examples of compounds with documented inhibition at 0.04 µM follow.
molecular target: CDK4 (Homo sapiens, UniProt P11802+Q16531); experiment: CDK4 percentage degradation in Calu-1 cells (Table 6); format: cell-based; parameters: Cells that express cyclin D1-3 and CDK4/6 proteins were treated with heterobifunctional compounds; endogenous in cells; host or cells: Calu-1; details: 40 nM, 16 hours
Sequence (P11802 2-303 limits assumed): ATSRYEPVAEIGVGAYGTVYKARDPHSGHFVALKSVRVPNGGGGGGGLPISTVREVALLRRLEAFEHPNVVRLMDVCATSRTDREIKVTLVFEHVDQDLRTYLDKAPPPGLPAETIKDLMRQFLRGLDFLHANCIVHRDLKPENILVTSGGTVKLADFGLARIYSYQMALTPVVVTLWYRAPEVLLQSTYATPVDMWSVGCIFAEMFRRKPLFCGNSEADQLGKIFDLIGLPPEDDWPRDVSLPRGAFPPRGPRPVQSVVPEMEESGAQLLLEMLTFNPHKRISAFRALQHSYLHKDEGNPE
Sequence (P24385 whole entry partner): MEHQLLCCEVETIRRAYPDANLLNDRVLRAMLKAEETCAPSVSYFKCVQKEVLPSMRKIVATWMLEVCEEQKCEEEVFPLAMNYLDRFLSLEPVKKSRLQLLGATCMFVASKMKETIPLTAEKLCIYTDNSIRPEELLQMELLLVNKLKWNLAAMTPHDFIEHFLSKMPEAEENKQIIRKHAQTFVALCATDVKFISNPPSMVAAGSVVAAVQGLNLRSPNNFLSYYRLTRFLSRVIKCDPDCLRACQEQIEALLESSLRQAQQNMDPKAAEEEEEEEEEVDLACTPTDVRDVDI
Sequence (Q16531 2-1140 limits assumed): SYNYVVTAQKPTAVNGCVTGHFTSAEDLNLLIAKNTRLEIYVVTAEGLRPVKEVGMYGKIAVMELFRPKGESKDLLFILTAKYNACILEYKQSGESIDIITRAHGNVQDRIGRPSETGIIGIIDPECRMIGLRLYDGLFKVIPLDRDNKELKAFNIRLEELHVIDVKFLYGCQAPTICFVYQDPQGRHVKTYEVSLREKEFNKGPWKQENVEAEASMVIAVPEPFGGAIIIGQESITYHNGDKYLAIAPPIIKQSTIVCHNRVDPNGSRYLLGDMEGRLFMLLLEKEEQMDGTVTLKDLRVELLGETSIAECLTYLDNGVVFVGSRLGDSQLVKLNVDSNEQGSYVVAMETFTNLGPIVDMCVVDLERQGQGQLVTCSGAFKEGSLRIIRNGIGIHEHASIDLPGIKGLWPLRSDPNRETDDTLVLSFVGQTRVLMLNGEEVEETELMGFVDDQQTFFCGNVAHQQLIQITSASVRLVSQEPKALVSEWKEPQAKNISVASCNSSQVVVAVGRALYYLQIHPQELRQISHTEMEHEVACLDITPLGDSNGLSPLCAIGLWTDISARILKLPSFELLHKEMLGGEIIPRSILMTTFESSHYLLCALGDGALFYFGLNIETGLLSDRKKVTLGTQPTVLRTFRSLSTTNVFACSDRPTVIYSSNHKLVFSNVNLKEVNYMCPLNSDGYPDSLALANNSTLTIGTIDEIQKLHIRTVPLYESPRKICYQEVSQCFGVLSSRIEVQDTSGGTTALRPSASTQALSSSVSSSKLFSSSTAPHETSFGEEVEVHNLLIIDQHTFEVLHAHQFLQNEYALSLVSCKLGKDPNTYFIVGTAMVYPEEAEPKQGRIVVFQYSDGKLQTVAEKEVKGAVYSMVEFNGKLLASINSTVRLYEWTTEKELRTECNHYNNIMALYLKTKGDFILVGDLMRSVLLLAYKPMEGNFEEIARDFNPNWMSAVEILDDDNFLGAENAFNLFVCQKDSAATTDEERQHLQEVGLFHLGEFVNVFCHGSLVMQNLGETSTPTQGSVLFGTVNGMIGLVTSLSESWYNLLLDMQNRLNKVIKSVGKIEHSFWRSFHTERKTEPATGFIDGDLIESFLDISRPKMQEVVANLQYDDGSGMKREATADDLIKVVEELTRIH
observation-type: inhibition at 0.04 µM

[[record]]
compound = "[2H]C([2H])([2H])Nc1ccc(C(=O)Nc2cc(C)on2)c(NC2CN(C(=O)C(F)(F)CN3CCN(c4ccc(Nc5ncc6c(C)c(C(C)=O)c(=O)n(C7CCCC7)c6n5)nc4)CC3)C2)n1"
system_name = "CDK4 (Homo sapiens, UniProt P11802+Q16531)"
result = "< 30%"

[[record]]
compound = "COc1ccc(NC(=O)c2ccc(C)nc2NCCCCCCCNC(=O)CN2CCN(c3ccc(Nc4ncc5c(C)c(C(C)=O)c(=O)n(C6CCCC6)c5n4)nc3)CC2)nn1"
system_name = "CDK4 (Homo sapiens, UniProt P11802+Q16531)"
result = "50 to 80%"

[[record]]
compound = "CNc1ccc(C(=O)Nc2cccc(N)n2)c(NC2CC3(CC(NC(=O)CN4CCN(c5ccc(Nc6ncc7c(C)c(C(C)=O)c(=O)n(C8CCCC8)c7n6)nc5)CC4)C3)C2)n1 (stereo not drawn)"
system_name = "CDK4 (Homo sapiens, UniProt P11802+Q16531)"
result = "< 30%"


====

Examples of molecules with documented inhibition at 0.04 µM follow.
biological target: CDK4 (Homo sapiens, UniProt P11802+Q16531); test: CDK4 percentage degradation in Calu-1 cells (Table 6); type: cell-based; set-up: Cells that express cyclin D1-3 and CDK4/6 proteins were treated with heterobifunctional compounds; endogenous in cells; host or cells: Calu-1; details: 40 nM, 16 hours
observation-type: inhibition at 0.04 µM

[[record]]
molecule = "CC(=O)c1c(C)c2cnc(Nc3ccc(N4CCN(CC(=O)NC5CC6(C5)CC(Nc5nc(C)ccc5C(=O)Nc5cccc(C)n5)C6)CC4)cn3)nc2n(C2CCCC2)c1=O (centres unmarked)"
result = "< 30%"

[[record]]
molecule = "CNc1ccc(C(=O)N(C)c2ccc(N(C)C)nn2)c(NCCCCCNC(=O)CN2CCN(c3ccc(Nc4ncc5c(C)c(C(C)=O)c(=O)n(C6CCCC6)c5n4)nc3)CC2)n1"
result = "< 30%"

[[record]]
molecule = "CNc1ccc(C(=O)Nc2ccc(N(C)C)nn2)c(NCCC2CCN(C(=O)CN3CCN(c4ccc(Nc5ncc6c(C)c(C(C)=O)c(=O)n(C7CCCC7)c6n5)nc4)CC3)CC2)n1"
result = "50 to 80%"

[[record]]
molecule = "CNc1ccc(C(=O)Nc2cn(C)c(C(C)C)n2)c(NC2CC3(CC(NC(=O)CN4CCN(c5ccc(Nc6ncc7c(C)c(C(C)=O)c(=O)n(C8CCCC8)c7n6)nc5)CC4)C3)C2)n1 (centres unmarked)"
result = "< 30%"

[[record]]
molecule = "CNc1ccc(C(=O)Nc2ccc(N(C)C)nn2)c(NC2CC(CNC(=O)N3CCN(c4ccc(Nc5ncc6c(C)c(C(C)=O)c(=O)n(C7CCCC7)c6n5)nc4)CC3)C2)n1 (centres unmarked)"
result = "50 to 80%"


====

target: CDK4 (Homo sapiens, UniProt P11802+Q16531); experiment: CDK4 percentage degradation in Calu-1 cells (Table 6); assay type: cell-based; design: Cells that express cyclin D1-3 and CDK4/6 proteins were treated with heterobifunctional compounds; endogenous in cells; host or cells: Calu-1; settings: 40 nM, 16 hours
Examples of compounds with documented inhibition at 0.04 µM follow.
observation-type: inhibition at 0.04 µM

[[record]]
compound = "CNc1ccc(C(=O)Nc2ccc(N(C)C)nn2)c(NC2CC3(C2)CC(OC(C)(C)C(=O)N2CCN(c4ccc(Nc5ncc6c(C)c(C(C)=O)c(=O)n(C7CCCC7)c6n5)nc4)CC2)C3)n1 (stereo not shown) [CPD-216]"
observation_type = "inhibition at 0.04 µM"
result = "30 to 50%"

[[record]]
compound = "CNc1ccc(C(=O)NC2CCC(N(C)C)C2)c(NCCCCCNC(=O)CN2CCN(c3ccc(Nc4ncc5c(C)c(C(C)=O)c(=O)n(C6CCCC6)c5n4)nc3)CC2)n1 (stereo not shown) [CPD-55]"
observation_type = "inhibition at 0.04 µM"
result = "< 30%"

[[record]]
compound = "CNc1ccc(C(=O)Nc2ccc(N(C)C)nn2)c(NC2CC3(C2)CC(C(=O)N2CCN(c4ccc(Nc5ncc6c(C)c(C(C)=O)c(=O)n(C7CCCC7)c6n5)nc4)CC2)C3)n1 (stereo not shown) [CPD-140]"
observation_type = "inhibition at 0.04 µM"
result = "< 30%"

[[record]]
compound = "CNc1ccc(C(=O)Nc2ccc(N(C)C)nn2)c(NC2CC(COCC(=O)N3CCN(c4ccc(Nc5ncc6c(C)c(C(C)=O)c(=O)n(C7CCCC7)c6n5)nc4)CC3)C2)n1 (stereo not shown) [CPD-164]"
observation_type = "inhibition at 0.04 µM"
result = "50 to 80%"

[[record]]
compound = "CNc1ccc(C(=O)Nc2ccc(N(C)C)nn2)c(NC2CN(C(=O)CCCN3CCN(c4ccc(Nc5ncc6c(C)c(C(C)=O)c(=O)n(C7CCCC7)c6n5)nc4)CC3)C2)n1 [CPD-211]"
observation_type = "inhibition at 0.04 µM"
result = "30 to 50%"

[[record]]
compound = "CC(=O)c1c(C)c2cnc(Nc3ccc(N4CCN(CCC(=O)N5CC6(CC(Nc7nc(NC(C)C)ccc7C(=O)Nc7cn(C)c(C8CC8)n7)C6)C5)CC4)cn3)nc2n(C2CCCC2)c1=O [CPD-323]"
observation_type = "inhibition at 0.04 µM"
result = "< 30%"

[[record]]
compound = "CNc1ccc(C(=O)Nc2ccc(N(C)C)nn2)c(NCCCCNC(=O)CCN2CCN(c3ccc(Nc4ncc5c(C)c(C(C)=O)c(=O)n(C6CCCC6)c5n4)nc3)CC2)n1 [CPD-37]"
observation_type = "inhibition at 0.04 µM"
result = "50 to 80%"

